- tested_on: Glutamate racemase (Enterococcus faecalis (strain ATCC 700802 / V583), UniProt Q836J0)
- Sequence (Q836J0 whole entry): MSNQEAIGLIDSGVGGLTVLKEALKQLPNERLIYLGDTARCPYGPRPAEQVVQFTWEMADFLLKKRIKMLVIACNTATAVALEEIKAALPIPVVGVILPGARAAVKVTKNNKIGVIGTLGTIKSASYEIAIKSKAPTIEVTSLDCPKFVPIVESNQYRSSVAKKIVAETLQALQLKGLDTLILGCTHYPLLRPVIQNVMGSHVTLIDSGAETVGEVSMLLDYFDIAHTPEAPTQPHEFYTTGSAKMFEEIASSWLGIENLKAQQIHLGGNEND
- assay_name: Inhibition of Enterococcus faecalis murI assessed as effect on conversion of D-glutamate to L-glutamate at pH 8.0 by HPLC
pIC50: −log10 of the molar value.
assay_readout: pIC50

Below are worked cases with known answers.
>>> result("CCCCSc1nc(N(C)C)c2[nH]c(=O)c(=O)n(Cc3ccc(F)cc3)c2n1")
5.96
>>> result("Nc1nc(SCc2ccccc2)nc2c1[nH]c(=O)c(=O)n2Cc1ccccc1")
4.68

A. CCCCSc1nc(N)c2[nH]c(=O)c(=O)n(Cc3ccc(Cl)c(Cl)c3)c2n1
B. CCCCSc1nc(N)c2[nH]c(=O)c(=O)n(Cc3c(F)cccc3F)c2n1
C. CCCCSc1nc(NCCN2CCOCC2)c2[nH]c(=O)c(=O)n(Cc3ccc(F)cc3)c2n1
D. Nc1nc(SCCc2ccccc2)nc2c1[nH]c(=O)c(=O)n2Cc1ccccc1
E. CCCCSc1nc(N)c2[nH]c(=O)c(=O)n(CCCC)c2n1
Arrange these molecules by their pIC50, starting with the largest number. Please write the labels in the order that was asked for.
A, B, C, E, D

* * *

- tested_on: Glutamate racemase (Enterococcus faecalis (strain ATCC 700802 / V583), UniProt Q836J0)
- assay_name: Inhibition of Enterococcus faecalis murI assessed as effect on conversion of D-glutamate to L-glutamate at pH 8.0 by HPLC
pIC50: −log10 of the molar value.
assay_readout: pIC50

>>> result("CCCCSc1nc(N)c2[nH]c(=O)c(=O)n(Cc3cc(OC)cc(OC)c3)c2n1")
5.77

a. Nc1nc(SC2CCCC2)nc2c1[nH]c(=O)c(=O)n2Cc1ccccc1
b. CCCCSc1nc(NC)c2[nH]c(=O)c(=O)n(Cc3ccc(F)cc3)c2n1
c. CCCCSc1nc(N)c2[nH]c(=O)c(=O)n(Cc3ccc(F)cc3)c2n1
d. CCCCSc1nc(N)c2ncn(Cc3ccc([N+](=O)[O-])cc3)c2n1
Number of compounds to sort: 4. Sort criterion: pIC50, ascending. Give the labels in the order requested.
d, c, a, b

P. CCCCSc1nc(N)c2[nH]c(=O)c(=O)n(Cc3ccccc3)c2n1
Q. CCCCSc1nc(N2CCN(C)CC2)c2[nH]c(=O)c(=O)n(Cc3ccc(F)cc3)c2n1
Between the entries labeled P and Q , whose measured pIC50 is lower? Your answer should be the label of the entry you select.
Q

Data provenance: ChEMBL document CHEMBL1152148
